# maps each entry to its Top (MFI)
# tgt: T1, human SLC34A2 (human, UniProt O95436 1-690)
# T1 construct: whole, on cells; also called human solute carrier 34 A2; NaPi2b
# T1 sequence (looked up): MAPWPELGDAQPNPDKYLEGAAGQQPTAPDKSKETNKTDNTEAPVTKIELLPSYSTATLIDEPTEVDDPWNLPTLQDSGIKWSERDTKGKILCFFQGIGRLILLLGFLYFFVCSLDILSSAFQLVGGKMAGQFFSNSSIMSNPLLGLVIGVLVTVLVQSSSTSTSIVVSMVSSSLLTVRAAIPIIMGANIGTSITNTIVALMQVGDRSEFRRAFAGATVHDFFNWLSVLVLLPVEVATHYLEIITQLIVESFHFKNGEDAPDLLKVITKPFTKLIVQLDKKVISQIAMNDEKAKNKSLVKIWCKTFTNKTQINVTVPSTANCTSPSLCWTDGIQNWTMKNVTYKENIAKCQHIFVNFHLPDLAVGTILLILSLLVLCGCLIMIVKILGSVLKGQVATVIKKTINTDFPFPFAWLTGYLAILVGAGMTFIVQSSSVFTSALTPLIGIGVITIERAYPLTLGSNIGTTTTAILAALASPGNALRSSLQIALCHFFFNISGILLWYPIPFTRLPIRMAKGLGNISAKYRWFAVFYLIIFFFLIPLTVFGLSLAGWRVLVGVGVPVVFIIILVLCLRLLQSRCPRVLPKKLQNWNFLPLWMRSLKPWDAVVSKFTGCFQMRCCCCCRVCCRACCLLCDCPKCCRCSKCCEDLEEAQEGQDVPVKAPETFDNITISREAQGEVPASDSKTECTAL
# assay_name: FACS, OVCAR3 cells
Write the value in MFI as a bare number.

30H9B8F9 VH_P1/VL hIgG1 (antibody, V domains shown, PTM-derisked chimeric, hIgG1; that P1 is the N=>S version follows from the humanized .p1 chains; also called 30H9B8F9.p1 hIgG1) VH: QVQLQQPGAELVKPGASVKMSCKTSGYTFTTNNMHWVKQTPGQGLEWIGAIYPGSGATAYNQKFKGKATLTADKSSSTAYMQLSSLTSEASAVYYCARGMYGHGAMDYWGQGTSVIVSS VL: DIVMTQSHKFMSRSVGDRVRITCKASQDVGTAVAWYQQKPGQSPKLLIYWATTRHSGVPDRFTGSGSGTDFIFTISNVQSEDLADYFCQQYSSNPLTFGAGTKLELK    28700
30H9B8F9.p1.z11 hIgG1 (antibody, V domains shown, humanized hIgG1) VH: QVQLVQSGAEVVKPGASVKVSCKTSGYTFTTNNMHWVRQAPGQGLEWIGAIYPGSGATAYNQKFKGRVTLTADKSTSTAYMELSSLRSEATAVYYCARGMYGHGAMDYWGQGTLVTVSS VL: DIQMTQSPSFLSASVGDRVTITCKASQDVGTAVAWYQQKPGKSPKLLIYWATTRHSGVPDRFSGSGSGTEFIFTISSVQPEDFATYFCQQYSSNPLTFGAGTKLEIK    27000

Next up:
Prompt: Could you share which Top (MFI) value was measured for 62G10E4G8.p3.z12 hIgG1 (antibody, V domains shown, humanized hIgG1) VH: QVQLVQSGAEVKKPGASVKVSCKASGYTFPSYITHWVKQAPGQGLEWIGAIYPGNADTSYIQKFKGRVTLTADKSTSTAYMELSSLRSEDTAVYYCARGTYGTSAWFTYWGQGTLVTVSS VL: EIVLTQSPATLSASPGERATLSCRARQNIGNNLYWYQQKPGQSPRLLIKYASQSISGIPSRFSGSGSGTDFTLTISSVQSEDFAVYFCQQSFSWPLTFGAGTKLEIK ?
Completion: 25400
